# experimental.protocol: Pharmacokinetic profile summary
# Format: in vivo, mice or rats
# test.settings: po, 3 mg/kg; 3 mpk; first number of Plasma/brain pair; read-out: Cmax/(ng/mL) Plasma
measurement.kind: Cmax (ng/mL)
# number only, unit ng/mL dropped from output

Query (molecule): "CC(C)(C)C(=O)NNC(=O)/C=C\n1cnc(-c2cc(C(F)(F)F)cc(S(F)(F)(F)(F)F)c2)n1" ; field requested: Cmax 1250

---

# experimental.protocol: Pharmacokinetic profile summary
# Format: in vivo, mice or rats
# test.settings: rat, po, 10 mg/kg; 10 mpk; first number of Plasma/brain pair; read-out: Cmax/(ng/mL) Plasma
measurement.kind: Cmax (ng/mL)
Answer format: numeric, ng/mL implied, no suffix.

Quick one: Cmax for "O=C(/C=C\n1cnc(-c2cc(C(F)(F)F)cc(S(F)(F)(F)(F)F)c2)n1)NNc1cnccn1" ? 1890

---

Attribute: Cmax
# experimental.protocol: Pharmacokinetic profile summary
# Type: in vivo, mice or rats
# test.settings: po, 10 mg/kg; plasma; 10 mpk; read-out: Cmax (ng/ml) plasma/10 mpk
Report only the number, with the unit ng/mL understood.

Known results for compounds:
CC(C)(C)C(=O)NNC(=O)/C=C\n1cnc(-c2cc(C(F)(F)F)cc(S(F)(F)(F)(F)F)c2)n1; 1600
O=C(/C=C\n1cnc(-c2cc(C(F)(F)F)cc(S(F)(F)(F)(F)F)c2)n1)NNc1ccccn1; 796
O=C(/C=C\n1cnc(-c2cc(C(F)(F)F)cc(C(F)(F)F)c2)n1)NNc1cnccn1 [KPT-330, reference compound]; 2520

Given the compound "O=C(/C=C\n1cnc(-c2cc(C(F)(F)F)cc(S(F)(F)(F)(F)F)c2)n1)NNc1cnccn1" , what is its reported Cmax? 2550

Moving on to "NC(=O)/C(=C/n1cnc(-c2cc(C(F)(F)F)cc(S(F)(F)(F)(F)F)c2)n1)c1cncnc1" 312
